tested on: L1210 leukemia ip in BDF1 mice, survival T/C; assay: NCI In Vivo Anticancer Drug Screen. Data for tumor model L1210 Leukemia (intraperitoneal) in B6D2F1 (BDF1) mice; details: endpoint: mean survival time; dose: 12.5 mg/kg/injection; schedule: Q04DX003 (ip); vehicle: saline with Tween-80; higher = longer survival
Toxic doses and inconclusive results are not listed.
Please respond with reported T/C for every item in the list.

Report measured T/C; entry is O=C(/C(=C\c1ccccc1)CBr)c1ccc(Br)cc1
96 % of control

Report measured T/C; entry is O=C(O)c1ccccc1[N+](=O)[O-].[Ag]
90 % of control

Report measured T/C; entry is CCCCN(CCCC)CCNc1ccc(Cl)c2oc3cc(C)ccc3c(=O)c12
94 % of control

Report measured T/C; entry is C[N+]1(Cc2c[nH]c3ccsc23)CCCCC1
101 % of control

Report measured T/C; entry is O=[N+]([O-])/C=C\c1cc2c3c(c1)CCCN3CCC2
97 % of control

Report measured T/C; entry is O=c1ccccn1CCc1ccccc1
95 % of control

Report measured T/C; entry is CC(=O)OC(C#N)c1ccco1 (configuration not stated)
89 % of control

###

system: L1210 leukemia ip in BDF1 mice, survival T/C; assay: NCI In Vivo Anticancer Drug Screen. Data for tumor model L1210 Leukemia (intraperitoneal) in B6D2F1 (BDF1) mice; details: endpoint: mean survival time; dose: 400.0 mg/kg/injection; schedule: Q04DX002 (ip); vehicle: saline with Tween-80; higher = longer survival
Toxic doses and inconclusive results are not listed.
Please respond with reported T/C for every item in the list.

Report measured T/C; entry is c1ccc(C(Nc2ccccn2)(c2ccccc2)c2ccccc2)cc1
93 % of control

Report measured T/C; entry is COc1cc(C=Nc2ccc3c(c2)OCO3)ccc1OC(=O)c1ccccc1
93 % of control

Report measured T/C; entry is C/C=C\c1ccc(OC(=O)Nc2ccc(Cl)cc2)c(OC)c1
96 % of control

Report measured T/C; entry is COc1cc2oc3cc(C)oc(=O)c3c2cc1OC
103 % of control

Report measured T/C; entry is O=C(N/N=C\c1c[nH]c2ccccc12)N/N=C/c1c[nH]c2ccccc12
97 % of control

Report measured T/C; entry is O=C(Nc1ccc(Cl)cc1)Nc1cccc2nsnc12
90 % of control

###

Please respond with reported T/C for every item in the list.
system: L1210 leukemia ip in BDF1 mice, survival T/C; test: NCI In Vivo Anticancer Drug Screen. Data for tumor model L1210 Leukemia (intraperitoneal) in B6D2F1 (BDF1) mice; settings: endpoint: mean survival time; dose: 200.0 mg/kg/injection; schedule: Q01DX001 (ip); vehicle: saline; higher = longer survival
Inconclusive results and toxic doses are left out.

Report measured T/C; entry is COc1ccc(/C=N\NC(=O)CCCC(=O)N/N=C/c2ccc(OC)c(O)c2)cc1O
100 % of control

Report measured T/C; entry is Cc1ncc(CO)c2c1OC(C)(C)OC2
103 % of control

Report measured T/C; entry is O=CNNCc1c[nH]c(=O)[nH]c1=O
96 % of control

Report measured T/C; entry is O=[N+]([O-])c1cccc(OCCBr)c1
107 % of control

###

system: L1210 leukemia ip in BDF1 mice, survival T/C; assay: NCI In Vivo Anticancer Drug Screen. Data for tumor model L1210 Leukemia (intraperitoneal) in B6D2F1 (BDF1) mice; settings: endpoint: mean survival time; dose: 200.0 mg/kg/injection; schedule: Q01DX001 (ip); vehicle: saline with Tween-80; higher = longer survival
Inconclusive results and toxic doses are left out.
Please respond with reported T/C for every item in the list.

Report measured T/C; entry is O=C(NCc1ccccc1)C(F)(F)F
102 % of control

Report measured T/C; entry is CCOc1ncnc2c1nnn2C1OC(CO)C(O)C1O (stereo not drawn)
105 % of control

Report measured T/C; entry is COc1ccc(Cl)cc1NC(=O)/C=C/c1ccccc1
92 % of control

Report measured T/C; entry is O=C1c2ccccc2C(=O)N1Cc1cccc(Nc2cc(=O)[nH]c(=O)[nH]2)c1
95 % of control

Report measured T/C; entry is CC(C)=CCC/C(C)=C/Cn1ccccc1=O
98 % of control

Report measured T/C; entry is C=CCN(CC=C)/N=N/c1[nH]ncc1C(=O)OCC
92 % of control

Report measured T/C; entry is N#Cc1ccc(OCCCOc2ccccc2)cc1
102 % of control

Report measured T/C; entry is NNC(=O)c1ccccc1CO
103 % of control

Report measured T/C; entry is CCc1cc(C)cc(OC(=O)Nc2cc(Cl)ccc2OC)c1
93 % of control

Report measured T/C; entry is COc1ccc(C2C3CCC(C3)C2C(C)=O)cc1 (stereo not drawn)
90 % of control

Report measured T/C; entry is O=c1cc(NCc2ccc(Cl)cc2)[nH]c(=O)[nH]1
95 % of control

Report measured T/C; entry is NC(=O)c1csc(CCNC(=O)c2ccccc2)n1
102 % of control

Report measured T/C; entry is NC(=O)c1cc(Cl)cc(N)c1Cl
104 % of control

###

test system: L1210 leukemia ip in BDF1 mice, survival T/C; assay: NCI In Vivo Anticancer Drug Screen. Data for tumor model L1210 Leukemia (intraperitoneal) in B6D2F1 (BDF1) mice; settings: endpoint: mean survival time; dose: 400.0 mg/kg/injection; schedule: Q04DX003 (ip); vehicle: other; higher = longer survival
Toxic doses and inconclusive results are not listed.
Please respond with reported T/C for every item in the list.

Report measured T/C; entry is CCCCCCCCCCCCCCCCOc1ccc(C(=O)CC(=O)OC)cc1
94 % of control

Report measured T/C; entry is C[C@]1(O)CC[C@H]2[C@@H]3CCC4=CC(=O)CC[C@]4(C)[C@@]3(F)C(=O)C[C@@]21C
94 % of control

Report measured T/C; entry is N#CCCN(CCC#N)/N=N\c1nc[nH]c1C(N)=O
98 % of control

Report measured T/C; entry is OCc1ccc(OCc2ccccc2)c(OCc2ccccc2)c1
90 % of control

###

test system: L1210 leukemia ip in BDF1 mice, survival T/C; assay: NCI In Vivo Anticancer Drug Screen. Data for tumor model L1210 Leukemia (intraperitoneal) in B6D2F1 (BDF1) mice; conditions: endpoint: mean survival time; dose: 100.0 mg/kg/injection; schedule: Q01DX009 (ip); vehicle: saline
Inconclusive results and toxic doses are left out. Rule as the data show it: active = T/C of 150% or more; inactive = T/C below 125%.
Outcome (select one): 1.0 (active), 0.0 (inactive)

Test call, this molecule: O=C(O)C1=CC(O)C(O)C(O)C1 (stereo not given)
0.0

Test call, this molecule: CCn1c(O)c(C=N)c(=O)n(CC)c1=O
0.0

Test call, this molecule: CCS(=O)(=O)c1ccc(C)cc1
0.0

Test call, this molecule: O=[N+]([O-])c1ccc(NCc2ccccc2)c2nonc12
0.0

Test call, this molecule: C=C1C(=O)CCC1C(=O)O (stereo not given)
0.0

Test call, this molecule: Nc1nccnc1N
0.0

Test call, this molecule: COCBr
0.0

Test call, this molecule: NC12CC3CC(C1)CC(F)(C3)C2
0.0

Test call, this molecule: CCOC(=O)c1nc2nc(Cl)c(Cl)nc2[nH]1
0.0

Test call, this molecule: Nc1ncnc2c1ncn2C1OC(CF)C(O)C1O (stereo not given)
0.0

Test call, this molecule: O=[N+]([O-])c1cc(S(=O)(=O)O)cc(S(=O)(=O)O)c1O
0.0

Test call, this molecule: CCSc1nc(Cl)cc(Sc2nc(N)nc3nc[nH]c23)n1
1.0

Test call, this molecule: CCCS(=O)(=O)c1ccc(C)cc1
0.0

Test call, this molecule: CC(=O)Nc1cc(NC(C)=O)cc([N+](=O)[O-])c1
0.0

Test call, this molecule: CCCN(CCC)CCC(=O)O
0.0

Test call, this molecule: CCS(=O)(=O)CC(C)O (stereo not given)
0.0

Test call, this molecule: CCN(CC)CCNc1ccc(CO)c2oc3ccccc3c(=O)c12
0.0

Test call, this molecule: CCCC(=O)N1CCC(C)CC1
0.0

Test call, this molecule: CC(C)(CS(C)(=O)=O)C(=O)O
0.0

Test call, this molecule: O=[n+]1ccn2ccccc2c1
0.0

Test call, this molecule: CNCC(C)(C)c1ccccc1
0.0

Test call, this molecule: CCN(CCO)CC1OC(OC)C2OC(C)(C)OC12 (stereo not given)
0.0

Test call, this molecule: O=C(O)CCC(=O)c1ccccc1
0.0

Test call, this molecule: NC(N)=NCCCC(N)C(=O)O (stereo not given)
0.0

Test call, this molecule: O=[As](O)(O)c1ccc(OCCO)cc1
0.0

###

test system: L1210 leukemia ip in BDF1 mice, survival T/C; experiment: NCI In Vivo Anticancer Drug Screen. Data for tumor model L1210 Leukemia (intraperitoneal) in B6D2F1 (BDF1) mice; settings: endpoint: mean survival time; dose: 25.0 mg/kg/injection; schedule: Q04DX003 (ip); vehicle: water; higher = longer survival
Inconclusive results and toxic doses are left out.
Property Label: T/C

Give T/C only, for [Cl][Pt][Cl].c1ccc([PH+](c2ccccc2)C2CCCCC2)cc1.c1ccc([PH+](c2ccccc2)C2CCCCC2)cc1 , using L1210 leukemia ip in BDF1 mice, survival T/C data.
96 % of control

Give T/C only, for Nc1nc([Se])c2cc[nH]c2n1 , using L1210 leukemia ip in BDF1 mice, survival T/C data.
97 % of control

Give T/C only, for C[n+]1cc2c3ccccc3c(N)cc2c2ccccc21 , using L1210 leukemia ip in BDF1 mice, survival T/C data.
118 % of control

Give T/C only, for CC[n+]1c(-c2ccccc2)c2cc(N)ccc2c2ccc(N)cc21 , using L1210 leukemia ip in BDF1 mice, survival T/C data.
104 % of control

Provenance of the data: PubChem BioAssay AID248
